Biological target: GST-NbGlk1(82-244) (Nicotiana benthamiana)
Chain: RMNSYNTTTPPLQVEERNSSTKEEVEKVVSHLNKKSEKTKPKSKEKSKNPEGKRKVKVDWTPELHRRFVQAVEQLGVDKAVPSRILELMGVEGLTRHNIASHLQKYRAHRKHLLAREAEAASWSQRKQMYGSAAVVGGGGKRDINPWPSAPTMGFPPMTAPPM
Test: protein-binding microarray; high values mean tight binding
Details: protein: recombinant; tags: GST (pTH6838); dsDNA, one strand shown
Whole data set: some 16,000 sequences, median “e-score” near -0.044, cut for the highest 2% near 0.38. Only a selection was taken, and the highest values are over-represented in it overall.
As shown below, each of these sequences has a reported binding signal value.
parameter: binding signal (E-score)

- AGGATATG: 0.301
- ACGATCTC: 0.295
- ATCTGTTG: 0.301

---

Target: GST-NbGlk1(82-244) (Nicotiana benthamiana)
Chain: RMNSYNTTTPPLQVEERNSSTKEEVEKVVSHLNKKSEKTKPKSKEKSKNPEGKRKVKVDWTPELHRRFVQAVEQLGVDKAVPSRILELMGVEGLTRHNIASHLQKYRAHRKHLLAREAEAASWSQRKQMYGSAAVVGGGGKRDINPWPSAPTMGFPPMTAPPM
Experiment: protein-binding microarray; high values mean tight binding
Conditions: protein: recombinant; tags: GST (pTH6838); dsDNA, one strand shown
The full ranking holds about 16,000 sequences; the median of “e-score” is about -0.044, and the highest 2% start at about 0.38. The sample holds the highest values, similar sequences and a random draw of the others, so the mix is not that of the screen.
Each record here notes measured binding signal.
parameter: binding signal

- AATCCGCC: 0.372 E-score
- ATCCCGCA: 0.289 E-score
- ACACAATC: 0.39 E-score
- ATTGCAAA: 0.212 E-score
- ACACAATA: 0.226 E-score
- AAGATCCA: 0.24 E-score
- ATCTTAAA: 0.272 E-score
- ATCTTCCA: 0.319 E-score
- AATATATC: 0.311 E-score
- ACAAAATA: 0.293 E-score
- ACTCGTAA: 0.247 E-score
- ATTTGCTC: 0.253 E-score
- CAAAAATC: 0.399 E-score
- ATCTTGTA: 0.28 E-score
- CAAGAATC: 0.385 E-score
- AATGAATC: 0.262 E-score
- AAACGGAT: 0.245 E-score
- ATATATAT: 0.244 E-score
- AATCTACC: 0.404 E-score
- ATTTTTCA: 0.253 E-score
- ATTTTCGG: 0.237 E-score
- ATCTTTCC: 0.218 E-score
- CAAGATAC: 0.263 E-score
- ATTTCTCA: 0.248 E-score
- AGTATCGG: 0.202 E-score
- ATCGCATG: 0.29 E-score
- AAAGAAAT: 0.26 E-score
- ATCTCCTA: 0.337 E-score
- ATAAAATA: 0.22 E-score
- ATCCTCGA: 0.224 E-score
- ATCGCCAA: 0.206 E-score
- AAGGGAAT: 0.259 E-score
- AATTCTCT: 0.225 E-score
- ACCGGAAT: 0.243 E-score
- ATCTCTCA: 0.295 E-score
- ACAAGAAT: 0.273 E-score
- CAATCGTA: 0.235 E-score
- AATATAAA: 0.254 E-score
- AATCCGCT: 0.388 E-score
- ATCGCGTG: 0.304 E-score
- AGAATCTA: 0.48 E-score
- AATCGCAG: 0.224 E-score
- CACAAATC: 0.274 E-score
- AATTATAA: 0.243 E-score
- AACAAATC: 0.302 E-score
- AGAATCGA: 0.342 E-score
- AATCAACT: 0.274 E-score
- AATCAGCG: 0.312 E-score
- ACGTGGAT: 0.283 E-score
- ATCTCATG: 0.318 E-score
- AAATCTCT: 0.392 E-score
- ATATCACC: 0.277 E-score
- AAATTTTA: 0.24 E-score
- ATTACATA: 0.267 E-score
- AATCCGCG: 0.396 E-score
- ATTTTCGA: 0.266 E-score
- ATCTATCA: 0.276 E-score
- AATATCAA: 0.322 E-score
- AATACGAT: 0.294 E-score
- AATCCCCT: 0.262 E-score
- ATCGGTAA: 0.201 E-score
- ACGATTAC: 0.407 E-score
- AGCGCGAT: 0.325 E-score
- ATCTTATC: 0.288 E-score
- ATCTCTCG: 0.231 E-score
- ATATCTCC: 0.388 E-score
- ATGATTAC: 0.302 E-score
- AAAGAATC: 0.432 E-score
- ACCAGATC: 0.2 E-score
- ATTACCAC: 0.255 E-score
- AATCGCTG: 0.234 E-score
- AGCGATCC: 0.274 E-score
- ACTCAGAT: 0.255 E-score
- AGACAATC: 0.319 E-score
- ATATCACG: 0.347 E-score
- AATATCTG: 0.423 E-score
- AGAATCGG: 0.375 E-score
- AGTATCTA: 0.305 E-score

---

Recorded binding signal by entry
Molecular target: GST-NbGlk1(82-244) (Nicotiana benthamiana)
Chain: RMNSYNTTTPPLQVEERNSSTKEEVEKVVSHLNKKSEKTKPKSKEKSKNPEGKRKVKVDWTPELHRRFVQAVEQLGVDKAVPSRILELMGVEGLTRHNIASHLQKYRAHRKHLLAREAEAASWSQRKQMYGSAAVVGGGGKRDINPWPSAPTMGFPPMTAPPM
Assay: protein-binding microarray; high values mean tight binding
Details: protein: recombinant; tags: GST (pTH6838); dsDNA, one strand shown
The full ranking holds about 16,000 sequences; the median of “e-score” is about -0.044, and the highest 2% start at about 0.38. The sample holds the highest values, similar sequences and a random draw of the others, so the mix is not that of the screen.
parameter: binding signal (E-score)

* AATCCACT | 0.364
* AATCCACA | 0.419
* ACAAATCA | 0.262
* AAAAATCA | 0.336
* AAATATGC | 0.234
* AGCAATCA | 0.321
* ATCCGCAC | 0.284
* CACAATCG | 0.268
* AGAAATAT | 0.362
* AGATTGTG | 0.421
* ATTCGAAT | 0.221
* AGATCGTC | 0.336
* ATATTGTC | 0.261
* AGCAATCG | 0.308
* ATAAATCA | 0.239
* ATTCCACC | 0.235
* ATTATCCC | 0.261
* ATTTCGTG | 0.367
* ACAAATCT | 0.374
* AGAAATCC | 0.464
* AGAAATCA | 0.379
* ATCTCGCA | 0.324
* ACGATTCC | 0.4
* AGAATTCT | 0.299
* AGGATTCG | 0.352

---

Target: GST-NbGlk1(82-244) (Nicotiana benthamiana)
Chain: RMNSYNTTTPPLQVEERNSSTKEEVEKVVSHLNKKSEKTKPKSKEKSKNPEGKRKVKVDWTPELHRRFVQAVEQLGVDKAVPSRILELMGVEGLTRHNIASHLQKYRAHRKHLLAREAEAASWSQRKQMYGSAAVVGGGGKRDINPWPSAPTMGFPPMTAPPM
Experiment: protein-binding microarray; high values mean tight binding
Conditions: protein: recombinant; tags: GST (pTH6838); dsDNA, one strand shown
Whole data set: some 16,000 sequences, median “e-score” near -0.044, cut for the highest 2% near 0.38. Many of the other results were omitted from the sample, so the highest values are more common in it than they were.
Below, each of the sequences is paired with its reported binding signal value.
parameter: binding signal (E-score)

• ATTCTCAC = 0.299
• AAAATCGG = 0.363
• CAATCTAA = 0.351
• AAATCGAG = 0.288
• AATCGCAT = 0.274
• ATCCAGTG = 0.221
• ATCTCTTA = 0.337
• ATATCTTC = 0.412
• ATTCTCAG = 0.32
• AAAATCGT = 0.39

---

Target: GST-NbGlk1(82-244) (Nicotiana benthamiana)
Chain: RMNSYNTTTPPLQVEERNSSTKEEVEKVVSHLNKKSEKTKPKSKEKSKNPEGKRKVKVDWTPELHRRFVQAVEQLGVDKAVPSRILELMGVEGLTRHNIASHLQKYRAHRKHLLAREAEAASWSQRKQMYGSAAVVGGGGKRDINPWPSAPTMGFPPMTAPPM
Assay: protein-binding microarray; NbGlk1 is a Golden2-like transcription factor of Nicotiana benthamiana; high values mean tight binding
Details: protein: recombinant; tags: GST (pTH6838); dsDNA, one strand shown
The full ranking holds about 16,000 sequences; the median of “e-score” is about -0.044, and the highest 2% start at about 0.38. This is one part of a sample in which the highest values are shown more often than they occur.
sequences and their reported binding signal
parameter: binding signal (E-score)

* ATCCCCAA | 0.276
* ATATTGAT | 0.248
* ATTCGCTC | 0.231
* AATCCTGC | 0.356
* ACAATATA | 0.206
* ATATTGCA | 0.225
* ACGATCTG | 0.298
* AGACAGAT | 0.222
* AATCCTCG | 0.345
* CAATCGAA | 0.202
* AATCATTA | 0.201
* ATCTGCAA | 0.317
* ATTCCTAG | 0.202
* ATTCCAAC | 0.214
* AATAGAAT | 0.256
* ATAATATC | 0.347
* ATCTGGTA | 0.238
* ATCAGCGA | 0.229
* CAGATATG | 0.393
* ATGGGAAT | 0.296
* AACATAAT | 0.233
* ATCGGGAA | 0.276
* ATTCCCAG | 0.291
* AGATTGCG | 0.494
* AGAATATC | 0.435
* AGCGATTC | 0.253
* CAAATACG | 0.225
